- Experiment summary: Half life in phosphate buffer at pH 7 at room temperature under sunlight
- Type: physicochemical
Property name: half-life

* O=C(c1cc(Cl)c(Cl)[nH]1)c1c(O)cccc1O | 994 min

###

- Experiment summary: Half life under dark condition at room temperature
- Assay type: physicochemical
Property name: half-life

• O=C(c1cc(Cl)c(Cl)[nH]1)c1c(O)cccc1O = 24.9 days

###

- Experiment summary: Half life in phosphate buffer at pH 6.2 at room temperature under sunlight
- Assay type: physicochemical
Property name: half-life (h)

- O=C(c1cc(Cl)c(Cl)[nH]1)c1c(O)cccc1O [PYOLUTEORIN]: 31

###

- Experiment summary: Half life in phosphate buffer at pH 7.8 under dark condition
- Type: physicochemical
Property name: half-life (days)

- O=C(c1cc(Cl)c(Cl)[nH]1)c1c(O)cccc1O: 23.9
